// reported IC50 for each item listed
Molecular target: PI3Kγ (p120γ) (Homo sapiens, UniProt P48736)
Construct: purchased Promega V1761
Sequence (P48736 whole entry): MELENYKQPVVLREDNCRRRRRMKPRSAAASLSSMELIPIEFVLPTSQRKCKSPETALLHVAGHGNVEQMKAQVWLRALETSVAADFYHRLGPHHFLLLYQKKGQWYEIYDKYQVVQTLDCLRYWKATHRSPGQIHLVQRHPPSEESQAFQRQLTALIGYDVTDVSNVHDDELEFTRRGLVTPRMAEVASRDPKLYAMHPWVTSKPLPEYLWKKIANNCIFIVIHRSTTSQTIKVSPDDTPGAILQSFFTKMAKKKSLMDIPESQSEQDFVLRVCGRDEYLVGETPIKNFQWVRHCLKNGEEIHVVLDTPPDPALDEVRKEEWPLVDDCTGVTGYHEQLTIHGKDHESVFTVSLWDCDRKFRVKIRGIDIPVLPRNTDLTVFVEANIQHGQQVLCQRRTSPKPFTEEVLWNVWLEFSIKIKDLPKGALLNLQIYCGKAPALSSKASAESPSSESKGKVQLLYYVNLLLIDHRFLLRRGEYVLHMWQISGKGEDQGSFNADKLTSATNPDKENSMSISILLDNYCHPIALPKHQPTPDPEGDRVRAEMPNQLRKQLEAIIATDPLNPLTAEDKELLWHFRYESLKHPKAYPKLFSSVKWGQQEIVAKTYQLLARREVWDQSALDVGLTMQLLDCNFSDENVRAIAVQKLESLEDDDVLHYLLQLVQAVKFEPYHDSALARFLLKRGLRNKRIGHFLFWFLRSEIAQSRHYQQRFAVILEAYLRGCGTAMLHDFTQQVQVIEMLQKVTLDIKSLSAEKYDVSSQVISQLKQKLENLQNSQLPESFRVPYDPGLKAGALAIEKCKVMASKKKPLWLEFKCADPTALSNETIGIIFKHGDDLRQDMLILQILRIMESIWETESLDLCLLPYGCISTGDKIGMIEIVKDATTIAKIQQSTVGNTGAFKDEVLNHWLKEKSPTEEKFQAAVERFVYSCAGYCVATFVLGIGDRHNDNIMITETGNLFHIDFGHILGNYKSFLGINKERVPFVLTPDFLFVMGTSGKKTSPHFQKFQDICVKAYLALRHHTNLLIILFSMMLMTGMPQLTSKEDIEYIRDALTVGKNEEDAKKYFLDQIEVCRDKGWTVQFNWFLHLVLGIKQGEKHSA
Experiment: Inhibition of PI3K kinase activity (ADP Glo), PI3Kγ
Conditions: Table 2, p120γ, read-out: biochemical potency (PI3Kγ IC50)

Example cases with answers are listed next.
{"molecule": "CO[C@H]1C[C@H](NC(=O)c2c(N)nn3ccc(-c4cc(C)c5c(c4)CN([C@@H](C)C4CC4)C5=O)nc23)C1 [Example 182]", "value.observed": "< 100 nM"}
{"molecule": "Cc1cc(-c2ccn3nc(N)c(C(=O)N[C@@H](C)C(N)=O)c3n2)cc2c1C(=O)N([C@@H](C)C1CC1)C2 [Example 190]", "value.observed": "< 100 nM"}
{"molecule": "Cc1cc(-c2ccn3nc(N)c(C(=O)NC4CNC4)c3n2)cc2c1C(=O)N([C@@H](C)C1CC1)C2 [Example 266]", "value.observed": "< 100 nM"}
{"molecule": "Cc1cc(-c2ccn3nc(N)c(C(=O)N[C@@H](CO)C(C)(C)C)c3n2)cc2c1C(=O)N([C@@H](C)C1CC1)C2 [Example 237]", "value.observed": "< 100 nM"}

Query: Supply reported IC50 belonging to this molecule: CC[C@H](CO)NC(=O)c1c(N)nn2ccc(-c3cc(C)c4c(c3)CN([C@@H](C)C3CC3)C4=O)nc12 [Example 183]
Response: < 100 nM

Query: // fetch IC50 given entry Cc1cc(-c2ccn3nc(N)c(C(=O)N[C@H]4Cc5ccccc5[C@@H]4O)c3n2)cc2c1C(=O)N([C@@H](C)C1CC1)C2 [Example 265]
Response: < 100 nM

Query: Kindly indicate its recorded IC50. Item: CC[C@H](CO)N1Cc2cc(-c3ccn4nc(N)c(C(=O)NC5CC5)c4n3)cc(C)c2C1=O [Example 308]
Response: < 100 nM

Query: Please supply the value of reported IC50 for the item Cc1cc(-c2ccn3nc(N)c(C(=O)N[C@@H](C)c4ccccn4)c3n2)cc2c1C(=O)N([C@@H](C)C1CC1)C2 [Example 217]
Response: < 100 nM

Query: Provide one value: measured IC50 of Cc1cc(-c2ccn3nc(N)c(C(=O)N4CCN(C)CC4)c3n2)cc2c1C(=O)N(C(C)C1CC1)C2 (stereo not drawn) [Example 291]
Response: > 1000 nM

Query: Identify measured IC50 associated with Cc1cc(-c2ccn3nc(N)c(C(=O)N[C@H]4C[C@H](N)C4)c3n2)cc2c1C(=O)N([C@@H](C)C1CC1)C2 [Example 185]
Response: < 100 nM

Query: Specify IC50 for Cc1cc(-c2ccn3nc(N)c(C(=O)NC4(C)CC4)c3n2)cc2c1C(=O)N([C@@H](C)C1CC1)C2 [Example 242] and stop.
Response: < 100 nM

Query: Query IC50 for Cc1cc(-c2ccn3nc(N)c(C(=O)NC4CC4)c3n2)cc2c1C(=O)N(CC(C)(C)O)C2 [Example 319]
Response: < 100 nM
